We begin with a simple list: items and their reported pKd.
STUDY_TARGET: T1, aggregated recombinant human FL TDP-43 (human, UniProt Q13148 1-414)
T1 construct: also called TDP-43 aggregates
T1 sequence (Q13148 whole entry): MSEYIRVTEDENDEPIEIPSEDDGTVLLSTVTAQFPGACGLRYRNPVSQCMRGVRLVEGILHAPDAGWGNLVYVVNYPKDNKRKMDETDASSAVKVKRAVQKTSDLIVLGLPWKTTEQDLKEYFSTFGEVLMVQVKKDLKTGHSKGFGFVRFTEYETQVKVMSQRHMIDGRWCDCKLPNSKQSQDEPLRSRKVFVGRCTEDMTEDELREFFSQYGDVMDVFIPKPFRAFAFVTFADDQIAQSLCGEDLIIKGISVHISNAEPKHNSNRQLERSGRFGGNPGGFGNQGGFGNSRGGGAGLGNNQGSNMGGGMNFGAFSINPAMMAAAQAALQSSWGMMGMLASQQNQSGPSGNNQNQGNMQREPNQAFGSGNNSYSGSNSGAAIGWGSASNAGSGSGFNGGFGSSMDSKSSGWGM
PROTOCOL_DESCRIPTION: SPR avidity (Biacore T200), aggregated TDP-43 immobilised, antibody as analyte, 1:1 model
Please report pKd as the negative decimal logarithm of the molar concentration, giving only the number.

{"BINDER": "ACI-7062-406E3-Ab2 (antibody, IgG2a, V domains shown, also called 406E3G10; clone 6) VH: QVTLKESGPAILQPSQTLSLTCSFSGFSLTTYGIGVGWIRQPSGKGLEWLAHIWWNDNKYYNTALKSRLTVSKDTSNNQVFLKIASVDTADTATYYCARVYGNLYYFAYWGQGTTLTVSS VL: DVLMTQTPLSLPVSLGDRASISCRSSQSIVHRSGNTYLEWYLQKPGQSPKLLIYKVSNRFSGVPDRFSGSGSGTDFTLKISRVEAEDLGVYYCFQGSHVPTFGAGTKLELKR", "pKd": 9.40}

[ask] For the binder ACI-7062-406E3-Ab1 (antibody, IgG2a, V domains shown, also called 406E3D5; clone 5) VH: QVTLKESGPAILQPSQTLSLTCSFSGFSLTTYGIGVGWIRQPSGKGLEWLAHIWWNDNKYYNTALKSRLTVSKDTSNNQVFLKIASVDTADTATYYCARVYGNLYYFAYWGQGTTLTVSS VL: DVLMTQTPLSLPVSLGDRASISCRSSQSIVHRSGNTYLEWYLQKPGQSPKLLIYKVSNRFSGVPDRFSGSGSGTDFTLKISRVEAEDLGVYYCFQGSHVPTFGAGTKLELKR , what pKd is on record?
[reply] 9.70

[ask] For the binder ACI-7062-412A7-Ab1 (antibody, IgG2b, V domains shown, also called 412A7B7; clone 9) VH: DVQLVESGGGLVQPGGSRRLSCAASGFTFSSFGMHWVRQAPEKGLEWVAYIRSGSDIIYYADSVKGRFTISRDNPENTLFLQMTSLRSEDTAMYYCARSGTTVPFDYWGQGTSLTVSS VL: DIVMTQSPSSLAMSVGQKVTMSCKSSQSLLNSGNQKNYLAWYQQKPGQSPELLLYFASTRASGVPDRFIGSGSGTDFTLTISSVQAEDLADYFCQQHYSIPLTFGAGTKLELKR , what pKd is on record?
[reply] 9.52

[ask] For the binder ACI-7062-416A11-Ab1 (antibody, IgG2a, V domains shown, also called 416A11B3; clone 18) VH: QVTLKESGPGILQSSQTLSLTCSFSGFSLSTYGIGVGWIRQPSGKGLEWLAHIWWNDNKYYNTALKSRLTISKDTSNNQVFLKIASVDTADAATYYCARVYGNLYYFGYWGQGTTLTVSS VL: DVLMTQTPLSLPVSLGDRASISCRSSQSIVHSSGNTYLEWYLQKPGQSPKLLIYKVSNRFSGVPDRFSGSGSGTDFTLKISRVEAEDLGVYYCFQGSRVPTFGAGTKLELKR , what pKd is on record?
[reply] 8.92

[ask] For the binder ACI-7062-410H3-Ab1 (antibody, IgG1, V domains shown, also called 410H3B9; clone 7) VH: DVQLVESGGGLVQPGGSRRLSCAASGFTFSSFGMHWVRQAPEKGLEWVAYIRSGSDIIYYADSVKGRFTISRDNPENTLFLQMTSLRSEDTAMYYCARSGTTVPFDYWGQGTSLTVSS VL: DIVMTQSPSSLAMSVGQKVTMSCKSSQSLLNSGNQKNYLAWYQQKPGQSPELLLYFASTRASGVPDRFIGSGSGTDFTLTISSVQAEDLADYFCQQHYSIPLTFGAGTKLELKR , what pKd is on record?
[reply] 7.72

Each recorded value in this set is attributed to patent US20220025023A1.
